All figures here come from patent US10399940B2.

molecular target: F508delCFTR (Homo sapiens, UniProt P13569, DEL508-508); construct: expressed in transfected cells; host or cells: CFBE41o- (human lung derived epithelial cell line), doxycycline-inducible expression; experiment: Cell Surface Expression-Horse Radish Peroxidase (CSE-HRP) assay; format: cell-based; conditions: CFBE41o-F508delCFTR-HRP cells; with co-corrector (2 μM); normalized to on-plate positive control; highest concentration 20 μM;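 further: % of on-plate positive control (2 µM of the co-corrector compound) after DMSO subtraction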
Sequence (P13569 with tags, fused parts or gaps DEL508-508): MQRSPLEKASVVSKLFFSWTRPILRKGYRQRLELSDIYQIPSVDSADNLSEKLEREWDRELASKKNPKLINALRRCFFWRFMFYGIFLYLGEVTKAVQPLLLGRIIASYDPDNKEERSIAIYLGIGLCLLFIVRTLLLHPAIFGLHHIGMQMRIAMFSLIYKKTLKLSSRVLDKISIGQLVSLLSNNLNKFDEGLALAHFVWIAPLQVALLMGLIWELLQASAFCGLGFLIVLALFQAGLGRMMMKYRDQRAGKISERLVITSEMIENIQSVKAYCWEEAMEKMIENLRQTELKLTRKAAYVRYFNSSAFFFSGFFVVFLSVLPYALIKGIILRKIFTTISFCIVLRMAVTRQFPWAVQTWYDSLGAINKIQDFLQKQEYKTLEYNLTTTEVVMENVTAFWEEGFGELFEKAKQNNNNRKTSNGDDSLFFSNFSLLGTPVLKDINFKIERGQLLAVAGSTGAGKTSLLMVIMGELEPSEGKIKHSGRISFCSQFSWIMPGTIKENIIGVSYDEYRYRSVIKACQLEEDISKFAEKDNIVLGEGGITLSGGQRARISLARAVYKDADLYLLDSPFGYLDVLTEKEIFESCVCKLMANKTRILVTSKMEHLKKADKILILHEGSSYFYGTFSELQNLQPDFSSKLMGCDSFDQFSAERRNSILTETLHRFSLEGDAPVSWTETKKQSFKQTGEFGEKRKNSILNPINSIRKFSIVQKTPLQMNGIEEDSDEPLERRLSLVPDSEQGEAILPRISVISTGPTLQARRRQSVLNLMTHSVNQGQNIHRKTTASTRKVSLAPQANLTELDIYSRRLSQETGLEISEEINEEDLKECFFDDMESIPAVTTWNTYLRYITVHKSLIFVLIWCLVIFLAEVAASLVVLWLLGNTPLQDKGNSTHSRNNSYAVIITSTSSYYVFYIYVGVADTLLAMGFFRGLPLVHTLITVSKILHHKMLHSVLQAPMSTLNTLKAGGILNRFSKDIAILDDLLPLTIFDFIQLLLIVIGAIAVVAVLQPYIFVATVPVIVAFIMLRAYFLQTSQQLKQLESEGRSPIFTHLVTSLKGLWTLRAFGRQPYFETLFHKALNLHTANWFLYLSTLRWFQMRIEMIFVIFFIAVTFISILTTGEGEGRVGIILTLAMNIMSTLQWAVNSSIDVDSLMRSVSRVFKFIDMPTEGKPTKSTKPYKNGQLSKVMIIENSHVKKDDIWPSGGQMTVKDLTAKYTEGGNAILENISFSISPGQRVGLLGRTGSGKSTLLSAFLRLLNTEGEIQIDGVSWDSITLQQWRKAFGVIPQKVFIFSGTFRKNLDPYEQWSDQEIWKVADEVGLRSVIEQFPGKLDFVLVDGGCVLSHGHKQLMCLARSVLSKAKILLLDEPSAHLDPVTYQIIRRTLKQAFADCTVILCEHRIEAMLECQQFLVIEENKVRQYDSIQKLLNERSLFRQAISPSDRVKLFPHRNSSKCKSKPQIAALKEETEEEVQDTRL

Molecule | Target under test | Maximum % activity (with co-corrector)
COc1ncc(C(F)(F)F)cc1CO[C@H]1[C@H](C(C)(C)C)[C@@H](C(=O)O)N(C(=O)[C@@H]2CCCCO2)[C@H]1c1cccc2c1OCC2 | F508delCFTR (Homo sapiens, UniProt P13569, DEL508-508) | +++ (≥350)
COc1ccc(C(C)(C)C)cc1CO[C@H]1[C@H](C(C)(C)C)[C@@H](C(=O)O)N(C(=O)OC(C)C)[C@H]1c1cccnc1OC(C)C | F508delCFTR (Homo sapiens, UniProt P13569, DEL508-508) | +++ (≥350)
COc1ncc(C(F)(F)F)cc1CO[C@H]1[C@H](C(C)(C)OC)[C@@H](C(=O)O)N(C(=O)C2CCCCC2)[C@H]1c1ccccc1C(C)C | F508delCFTR (Homo sapiens, UniProt P13569, DEL508-508) | +++ (≥350)
COc1ncc(C(F)(F)F)cc1CO[C@H]1[C@H](C(C)(C)C)[C@@H](C(=O)O)N(C(=O)[C@@H]2CCCCO2)[C@H]1c1cc(Cl)ccc1C | F508delCFTR (Homo sapiens, UniProt P13569, DEL508-508) | +++ (≥350)
COc1ccc(Br)cc1CO[C@H]1[C@H](C(C)(C)C)[C@@H](C(=O)O)N(C(=O)OC(C)C)[C@H]1c1ccccc1 | F508delCFTR (Homo sapiens, UniProt P13569, DEL508-508) | +++ (≥350)
Cc1cc(C(F)(F)F)cc(OC2[C@@H](c3ccccc3)N(C(=O)C3CCCCC3)[C@@H](C(=O)O)[C@@H]2C(C)(C)C)n1 (mixture of isomers) | F508delCFTR (Homo sapiens, UniProt P13569, DEL508-508) | +++ (≥350)
COc1ncnc(OC)c1CO[C@@H]1[C@@H](C(C)(C)C)[C@H](C(=O)O)N(C(=O)C2CCCCC2)[C@@H]1c1ccccc1 (racemic) | F508delCFTR (Homo sapiens, UniProt P13569, DEL508-508) | +++ (≥350)
COc1ncc(C(F)(F)F)cc1CO[C@H]1[C@H](C(C)(C)C)[C@@H](C(=O)O)N(C(=O)[C@@H]2CCCCO2)[C@H]1c1cccc2ccoc12 | F508delCFTR (Homo sapiens, UniProt P13569, DEL508-508) | +++ (≥350)
COc1ncc(C(F)(F)F)cc1CO[C@H]1[C@H](C(C)(C)C)[C@@H](C(=O)O)N(C(=O)[C@@H]2CCCCO2)[C@H]1c1ccccc1-c1cccc(Cl)c1 | F508delCFTR (Homo sapiens, UniProt P13569, DEL508-508) | +++ (≥350)
COc1ncc(C(F)(F)F)cc1CO[C@H]1[C@H](C(C)(C)C)[C@@H](C(=O)O)N(C(=O)[C@@H]2CCCCO2)[C@H]1c1ccccc1-c1ccc(=O)n(C)c1 | F508delCFTR (Homo sapiens, UniProt P13569, DEL508-508) | ++ (≥150 and <350)
COc1ncc(C(C)(C)C)cc1CO[C@H]1[C@H](C(C)(C)C)[C@@H](C(=O)O)N(C(=O)OC(C)C)[C@H]1c1cccc(Cl)c1 | F508delCFTR (Homo sapiens, UniProt P13569, DEL508-508) | ++ (≥150 and <350)
COc1ncc(C2(C)CC2)cc1CO[C@H]1[C@H](C(C)(C)C)[C@@H](C(=O)O)N(C(=O)[C@@H]2CCCCO2)[C@H]1c1ccccc1C | F508delCFTR (Homo sapiens, UniProt P13569, DEL508-508) | +++ (≥350)
